# test.method.notes: In vivo tissue distribution of radioactivity after intravenous administration
# Set-up: species or system Sprague Dawley rats
# condition.notes: lung, iv; rat, i.v., 30 min; read-out: Lung, Mean % Injected Dose/Gram
reported.endpoint: tissue uptake at 0.5 h (%ID/g)
Report as a plain number; the unit %ID/g is understood.

Problem: tissue uptake at 0.5 h lookup needed for CC(C[18F])OC(=O)[C@H]1[C@@H](c2ccc(I)cc2)C[C@@H]2CC[C@H]1N2C (stereo partly shown) [[^18 F] FIPIT 8] , thanks.
Solution: 0.61

----------
# test.method.notes: In vivo tissue distribution of radioactivity after intravenous administration
# Set-up: species or system Sprague Dawley rats
# condition.notes: striatum, iv; rat, i.v., 2 min; read-out: Striatum (St), Mean % Injected Dose/Gram
reported.endpoint: tissue uptake at 2 min (%ID/g)
Report as a plain number; the unit %ID/g is understood.

Problem: tissue uptake at 2 min lookup needed for CC(C[18F])OC(=O)[C@H]1[C@@H](c2ccc(I)cc2)C[C@@H]2CC[C@H]1N2C (stereo partly shown) [[^18 F] FIPIT 8] , thanks.
Solution: 0.84
